system tested: T1, human CTGF (antigen of the Biacore assays) (human, UniProt P29279 27-349)
T1 construct: also called antigen human CTGF; human CTGF protein
T1 sequence (looked up): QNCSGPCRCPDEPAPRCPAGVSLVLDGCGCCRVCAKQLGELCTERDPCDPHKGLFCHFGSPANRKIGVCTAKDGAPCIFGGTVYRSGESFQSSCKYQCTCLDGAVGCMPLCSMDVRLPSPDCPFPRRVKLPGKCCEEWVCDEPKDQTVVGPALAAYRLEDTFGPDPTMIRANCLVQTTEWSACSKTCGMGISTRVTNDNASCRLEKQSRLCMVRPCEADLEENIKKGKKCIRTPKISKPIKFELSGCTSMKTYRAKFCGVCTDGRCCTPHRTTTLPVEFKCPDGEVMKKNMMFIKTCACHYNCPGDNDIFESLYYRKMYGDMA
assay summary: Biacore, antibody captured on Protein A, CTGF in flow, 1:1 fit
Recorded kon, one value per entry.
Answer with a number only, understood to be in M⁻¹ s⁻¹.

• chimeric antibody Ch95 (antibody, human IgG1, kappa, V domains shown) VH: EVLLQQSGPVLVKPGPSVKISCKASGFTFTNYDIHWVKQSHGKSLEWIGLVYPYNGGTAYNQKFKDKATLTFDTSSSTAYMELNSLTSEDSAVYYCARWGLIPGTTSYFDVWGTGTTVTVSS VL: QIVLSQSPPILSASPGEKVTMTCRASSSVSYIHWYQQKPRSSPKPWIYATSNLASGVPARFSGSGSGTSYSLTISRVEAEDAATYYCQQWNSNPWTFGGGTRLEIKR = 7.85e+06

Okay, now this binder:
Please give measured kon of the following entry: Hu95-41wk (antibody, human IgG1, kappa, V domains shown) VH: EVQLVQSGAEVKKPGASVKVSCKASGFTFTNYDIHWVKQAPGQRLEWIGLVYPYNGGTAYNQKFKDKATLTFDTSASTAYMELSSLRSEDTAVYYCARWGLIPGTTSYFDVWGQGTTVTVSS VL: EIVLTQSPATLSLSPGERATLSCRASSSVSYIHWYQQKPGQAPRPWIYATSNLASGIPARFSGSGSGTDYTLTISRLEPEDFAVYYCQQWNSNPWTFGGGTKVEIKR
7.7e+06
